Recorded values, source PubChem BioAssay AID1159580.

Known normalized growth of a selection of compounds
Assay: chemical genetic growth profiling, strain panel (AID 1159580);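 further: tested at 20 µM; growth read once vehicle control cultures reached saturation at 30 °C; 1 = growth at the plate median or of vehicle wells; lower values mean less growth of the strain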
Settings: S. cerevisiae strains, growth OD, strain wild type, hits give low values
The campaign covered roughly 5,500 compounds. About 2,000 (36%) were called active. Inconclusive results (about 18%) are left out. This is one part of the list.

CCOC(=O)c1c[nH]c2c(F)cccc2c1=O 0.989 (inactive)
COc1ccc(CCNC(=O)c2ccccc2Cl)cc1OC 1.01 (inactive)
CC(C)Cn1c(=O)n(C)c(=O)c2[nH]cnc21 0.995 (inactive)

Here is the next item to consider.
Consider the compound CN1CCC[C@H]1c1cccnc1 . State its measured normalized growth. 0.999 (inactive)
